Tested on: human PBMCs
Test: CD3/CD28 stimulated IL-2 release NECA reversal assay in human PBMCs;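 also: dose-response as % inhibition where 100% equals no-NECA control wells with CD3/CD28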
Format: cell-based
Details: PBMC, CD3/CD28 antibody stimulated, 1 uM NECA, 24 hours, IL-2 in culture supernatant
Lab note: anything with IC50 below 20 nM is marked TRUE; values at 20 nM or higher are marked FALSE.

[[record]]
compound = "N#Cc1cccc(-c2nn3ccc(N4CCN(CCF)CC4)nc3c2C#N)c1 [Example 87]"
classification = "FALSE"

[[record]]
compound = "Cc1cc(-c2c(-c3cccc(C#N)c3)nn3ccc(N)nc23)cc(N)n1 [Example 27.1]"
classification = "FALSE"

[[record]]
compound = "Cc1cc(-c2c(-c3cccc(C#N)c3)nn3ccc(N4CCOC(CCN(C)C)C4)nc23)cc(Cl)n1 (stereo not shown) [Example 2.21]"
classification = "FALSE"

[[record]]
compound = "N#Cc1c(-c2ccccc2F)nn2ccc(NCc3ccccc3)nc12 [Example 35]"
classification = "FALSE"

[[record]]
compound = "Cc1cc(-c2c(-c3cccc(C#N)c3)nn3ccc(N[C@H]4C[C@@H](O)C4)nc23)cc(Cl)n1 [Example 2.10]"
classification = "FALSE"

[[record]]
compound = "Cc1cc(-c2c(-c3cccc(C#N)c3)nn3ccc(N4CCOC[C@H]4C(=O)O)nc23)cc(Cl)n1 [Example 2.3]"
classification = "TRUE"

[[record]]
compound = "N#Cc1c(-c2cccc(F)c2)nn2ccc(NCc3ccccc3)nc12 [Example 70]"
classification = "FALSE"

[[record]]
compound = "Cc1cc(-c2c(-c3cccc(C#N)c3)nn3ccc(NCC4(O)COC4)nc23)cc(Cl)n1 [Example 2.8]"
classification = "FALSE"

[[record]]
compound = "Cc1cc(-c2c(-c3cccc(C#N)c3)nn3ccc(C(=O)NCC(C)(C)O)nc23)cc(Cl)n1 [Example 5.2]"
classification = "TRUE"

[[record]]
compound = "Cc1cc(-c2c(-c3cccc(C#N)c3)nn3ccc(C(=O)NC[C@@H](O)CO)nc23)cc(Cl)n1 [Example 6.15]"
classification = "TRUE"

[[record]]
compound = "Cc1cc(-c2c(-c3cccc(C#N)c3)nn3ccc(OC4CCNCC4)nc23)cc(Cl)n1 [Example 24]"
classification = "FALSE"

[[record]]
compound = "Cc1cc(-c2c(-c3cccc(C#N)c3)nn3ccc(C(=O)NC45CC(O)(C4)C5)nc23)cc(C)n1 [Example 92.2]"
classification = "TRUE"

[[record]]
compound = "CO[C@H]1CN(C)C[C@@H]1NC(=O)c1ccn2nc(-c3cccc(C#N)c3)c(-c3cc(C)nc(Cl)c3)c2n1 [Example 6.14]"
classification = "TRUE"

[[record]]
compound = "Cc1cc(-c2c(-c3cccc(C#N)c3)nn3ccc(C(=O)N[C@@H](C)[C@H](O)CO)nc23)cc(Cl)n1 [Example 7.19]"
classification = "TRUE"

[[record]]
compound = "Cc1cc(-c2c(-c3cccc(C#N)c3C)nn3ccc(C(=O)N[C@@H](C)C(C)(C)O)nc23)cc(C)n1 [Example 104.1]"
classification = "TRUE"

[[record]]
compound = "Cc1cc(-c2c(-c3cccc(C#N)c3)nn3ccc(C(=O)NCC4(C)CCCNC4)nc23)cc(Cl)n1 (stereo not shown) [Example 7.18]"
classification = "TRUE"

